I'd appreciate it if you could supply Ki values for the items below.
Target or test system: D(2) dopamine receptor (Homo sapiens, UniProt P14416)
Sequence (P14416 whole entry): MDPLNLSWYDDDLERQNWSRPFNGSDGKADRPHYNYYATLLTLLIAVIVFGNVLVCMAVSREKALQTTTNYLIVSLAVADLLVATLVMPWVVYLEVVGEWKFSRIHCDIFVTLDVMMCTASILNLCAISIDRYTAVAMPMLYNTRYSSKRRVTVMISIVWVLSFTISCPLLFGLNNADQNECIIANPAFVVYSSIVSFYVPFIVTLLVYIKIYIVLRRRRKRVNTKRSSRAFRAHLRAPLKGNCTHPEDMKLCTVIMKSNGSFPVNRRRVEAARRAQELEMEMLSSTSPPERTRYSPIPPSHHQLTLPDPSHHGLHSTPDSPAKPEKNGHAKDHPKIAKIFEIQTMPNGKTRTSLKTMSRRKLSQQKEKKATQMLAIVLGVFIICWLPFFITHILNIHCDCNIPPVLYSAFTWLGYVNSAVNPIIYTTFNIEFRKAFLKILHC
Experimental protocol: biochemical
One number for each entry, in nM.

For orientation, consider the following solved cases.
{"Molecule": "CNc1cc(OC)c(C(=O)N[C@H]2CCN(Cc3ccccc3)C[C@@H]2C)cc1Cl (stereo in doubt; 3b)", "Ki [nM]": 39}
{"Molecule": "COc1c(C(=O)N[C@H]2CN(Cc3ccccc3)C[C@@H]2C)cc(Br)c2ccccc12 (stereo in doubt; 3d)", "Ki [nM]": 700}
{"Molecule": "COc1cc(N)c(Cl)cc1C(=O)N[C@H]1CCCN(Cc2ccccc2)C1 (stereo in doubt; 5a)", "Ki [nM]": 1100}

Hello, I would appreciate it if you could give Ki for each entry below.
1. COc1cc(N)c(Cl)cc1C(=O)N[C@H]1CCN(Cc2ccccc2)C[C@@H]1C (stereo in doubt; 3a)
2. COc1c(C(=O)N[C@H]2CN(Cc3ccccc3)C[C@H]2C)cc(Br)c2ccccc12 (stereo in doubt; 3f)
3. COc1c(C(=O)N[C@H]2CN(Cc3ccccc3)C[C@@H]2C)cc(Br)c2ccccc12 (stereo in doubt)
4. COc1c(C(=O)N[C@@H]2CCN(Cc3ccccc3)C2)cc(I)c2ccccc12 (stereo in doubt)
5. COc1c(C(=O)NCC[C@@H]2CCN(Cc3ccccc3)C2)cc(Br)c2ccccc12 (stereo in doubt)
6. CNc1cc(OC)c(C(=O)N[C@H]2CCN(Cc3ccccc3)C[C@@H]2C)cc1Cl (stereo in doubt)

[340, 135, 260, 70, 2800, 6.4]

Hello, I would appreciate it if you could give Ki for each entry below.
1. COc1c(C(=O)N[C@@H]2CCN(Cc3ccccc3)C2)cc(I)c2ccccc12 (stereo in doubt; 3h)
2. CNc1cc(OC)c(C(=O)NC2CCN(Cc3ccccc3)CC2)cc1Cl
3. COc1c(C(=O)N[C@@H]2CCN(Cc3ccccc3)C2)cc(Br)c2ccccc12 (stereo in doubt)
4. CNc1cc(OC)c(C(=O)N[C@H]2CN(Cc3ccccc3)C[C@H]2C)cc1Cl (stereo in doubt; 3e)
5. COc1c(C(=O)NC[C@@H]2CCN(Cc3ccccc3)C2)cc(Br)c2ccccc12 (stereo in doubt)

1. 23
2. 15
3. 150
4. 3
5. 870

Hello, I would appreciate it if you could give Ki for each entry below.
1. CNc1cc(OC)c(C(=O)N[C@H]2CN(Cc3ccccc3)C[C@@H]2C)cc1Cl (stereo in doubt; 3c)
2. COc1cc(N)c(Cl)cc1C(=O)N[C@H]1CCCN(Cc2ccccc2)C1 (stereo in doubt)

1. 19
2. 4200

---

I'd appreciate it if you could supply pKi values for the items below.
Target or test system: D(2) dopamine receptor (Homo sapiens)
Experimental protocol: biochemical
One number for each entry, as −log10 of the molar value.

For orientation, consider the following solved cases.
{"Molecule": "CNc1cc(OC)c(C(=O)N[C@H]2CN(Cc3ccccc3)C[C@@H]2C)cc1Cl (stereo in doubt)", "pKi": 7.96}
{"Molecule": "COc1c(C(=O)NCC[C@@H]2CCN(Cc3ccccc3)C2)cc(Br)c2ccccc12 (stereo in doubt; 3l)", "pKi": 5.72}
{"Molecule": "C#Cc1cc(C(=O)N[C@@H]2CCN(Cc3ccccc3)C2)c(OC)c2ccccc12 (stereo in doubt)", "pKi": 6.60}

Hello, I would appreciate it if you could give pKi for each entry below.
1. COc1cc(N)c(Cl)cc1C(=O)N[C@H]1CCN(Cc2ccccc2)C[C@@H]1C (stereo in doubt)
2. COc1c(C(=O)N[C@@H]2CCN(Cc3ccccc3)C2)cc(C#Cc2ccccc2)c2ccccc12 (stereo in doubt)
3. COc1c(C(=O)N[C@@H]2CCN(Cc3ccccc3)C2)cc(C#Cc2ccccc2)c2ccccc12 (stereo in doubt; 3j)
4. CNc1cc(OC)c(C(=O)N[C@H]2CCCN(Cc3ccccc3)C2)cc1Cl (stereo in doubt)

8.13
5.26
5.40
6.68

Hello, I would appreciate it if you could give pKi for each entry below.
1. CNc1cc(OC)c(C(=O)N[C@H]2CCCN(Cc3ccccc3)C2)cc1Cl (stereo in doubt; 5b)
2. COc1c(C(=O)NC[C@@H]2CCN(Cc3ccccc3)C2)cc(Br)c2ccccc12 (stereo in doubt; 3k)
3. CNc1cc(OC)c(C(=O)N[C@H]2CN(Cc3ccccc3)C[C@H]2C)cc1Cl (stereo in doubt)
4. C#Cc1cc(C(=O)N[C@@H]2CCN(Cc3ccccc3)C2)c(OC)c2ccccc12 (stereo in doubt; 3i)

[6.89, 6.38, 8.70, 7.09]

meta.source: ChEMBL document CHEMBL1136241
